Study system: T1, LIN7C, Q9NUP9
T1 sequence (Q9NUP9 88-185, limits assumed, looked up): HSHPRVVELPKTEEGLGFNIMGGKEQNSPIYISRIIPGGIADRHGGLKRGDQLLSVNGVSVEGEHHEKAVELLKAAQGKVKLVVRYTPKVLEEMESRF
Experiment notes: holdup assay
Design: key: below the threshold = too weak to quantify, mostly under pKd 3.1 to 4
Assay conditions: plain residues with an end cap or a label only (N-terminal biotin on a linker: ado-ado)

Binder: GNSVLKSTQF [SLC22A12, Q96S37]
pKd: 4.12
//
Binder: QGLAERISVL [PRKD2, Q9BZL6]
pKd: 4.12
//
Binder: TKGPRGPTRV [SAPCD1, Q5SSQ6]
pKd: below the threshold
//
Binder: QSARLWETSI [ADAM22, Q9P0K1]
pKd: 4.5
//
Binder: QKNRKAQEDL [CES3, Q6UWW8]
pKd: below the threshold
//
Binder: TSSMRGMDAV [RSRC2, Q7L4I2]
pKd: 3.97
//
Binder: PEYLGLDVPV [ERBB2, P04626]
pKd: below the threshold
//
Binder: RRRESYSTTV [EVI5, O60447]
pKd: 4.31
